- measurement protocol: Solubility assessed as highest concentration that did not scatter light at pH 7.4 by nephelometric method
- Assay type: physicochemical
- test conditions: buffer
readout: solubility kinetic (µM)
Supply the numeric figure in µM, leaving out any unit text.

Need solubility kinetic of COC1CCCN(S(=O)(=O)c2ccc(C(C)(C)C)cc2)CC1 (stereo unspecified) , thanks.
100
